Assay: Lightfastness test of thin films
Assay type: physicochemical
Settings: thin film on glass plate, UV fluorescent lamps 15 W/m^2, 45° C., 10 hours
Method: Thin films of Complex Compounds (2) to (5), (7), (9) to (11), (13) to (21), (24), (26), (28), (30), (31), and (33) were respectively obtained similarly to the film-forming test except that a glass plate (manufactured by Taiyu Kizai Co., Ltd.; 2 cm×2 cm; thickness: 2 mm) was used as the substrates instead of the plate made of polycarbonate resin. […] Ultraviolet-visible absorption spectra of the thin film before and after the lightfastness test were measured using a spectrophotometer. […]
Known I^a/I^a0 (absorbance ratio at absorption maximum after/before lightfastness test) of a selection of compounds
Just the number, please, no unit after it.

Cc1c(/C=N/[N-]c2nnnn2-c2ccccc2)c([O-])n(CC(C)C)c(=O)c1C#N.Cc1c(/C=N/[N-]c2nnnn2-c2ccccc2)c([O-])n(CC(C)C)c(=O)c1C#N.Cc1c(/C=N/[N-]c2nnnn2-c2ccccc2)c([O-])n(CC(C)C)c(=O)c1C#N.Cc1c(/C=N/[N-]c2nnnn2-c2ccccc2)c([O-])n(CC(C)C)c(=O)c1C#N.[Co+3].[Co+3].c1cc[n+]2c(c1)-c1cccc[n+]1CCC2	0.92
Cc1c(/C=N/[N-]c2nnnn2-c2ccccc2)c([O-])n(Cc2ccccc2)c(=O)c1C#N.Cc1c(/C=N/[N-]c2nnnn2-c2ccccc2)c([O-])n(Cc2ccccc2)c(=O)c1C#N.Cc1c(/C=N/[N-]c2nnnn2-c2ccccc2)c([O-])n(Cc2ccccc2)c(=O)c1C#N.Cc1c(/C=N/[N-]c2nnnn2-c2ccccc2)c([O-])n(Cc2ccccc2)c(=O)c1C#N.[Co+3].[Co+3].c1cc[n+]2c(c1)-c1cccc[n+]1CCC2	0.89

Entry CCn1c([O-])c(/C=N/[N-]C(=O)c2ccc(C(F)(F)F)cc2)c(C)c(C#N)c1=O.CCn1c([O-])c(/C=N/[N-]C(=O)c2ccc(C(F)(F)F)cc2)c(C)c(C#N)c1=O.CCn1c([O-])c(/C=N/[N-]C(=O)c2ccc(C(F)(F)F)cc2)c(C)c(C#N)c1=O.CCn1c([O-])c(/C=N/[N-]C(=O)c2ccc(C(F)(F)F)cc2)c(C)c(C#N)c1=O.[Co+3].[Co+3].c1cc[n+]2c(c1)-c1cccc[n+]1CCC2 , I^a/I^a0 (absorbance ratio at absorption maximum after/before lightfastness test) reported as 0.97
